Consider the following compounds; for each one, report its log10 of Kb.
EXPERIMENTAL SYSTEM: human H3 receptor (Homo sapiens)
Construct: expressed in transfected cells; host or cells: SK-N-MC sublines with a reporter construct
Sequence (Q9Y5N1 whole entry): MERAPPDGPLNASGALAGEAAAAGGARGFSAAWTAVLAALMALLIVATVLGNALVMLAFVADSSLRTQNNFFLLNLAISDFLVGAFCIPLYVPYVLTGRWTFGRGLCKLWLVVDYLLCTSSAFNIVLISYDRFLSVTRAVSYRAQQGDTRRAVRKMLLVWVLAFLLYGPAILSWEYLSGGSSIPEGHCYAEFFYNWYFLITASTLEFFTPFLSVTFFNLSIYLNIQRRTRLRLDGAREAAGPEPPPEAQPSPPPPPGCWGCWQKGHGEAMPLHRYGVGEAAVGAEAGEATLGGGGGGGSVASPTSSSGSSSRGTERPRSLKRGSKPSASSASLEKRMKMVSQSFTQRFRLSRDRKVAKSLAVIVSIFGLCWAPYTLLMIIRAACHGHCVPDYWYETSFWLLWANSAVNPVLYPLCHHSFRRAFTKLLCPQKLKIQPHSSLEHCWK
TEST PROTOCOL: Cyclic AMP Accumulation (human H3 receptor)
Format: cell-based
Where a name gives a salt, the structure may show the parent alone.
Kindly note that the scale is log10 and the underlying Kb is in nM.

Q: Reported log10 of Kb, compound Cc1cc(Oc2ccc(C(=O)N3CCCN(C4CC4)CC3)cn2)ccc1Cl [Example 12] : ____
A: 0.74

Q: Give its log10 of Kb value. Item: N#Cc1nc(C(=O)N2CCCN(C3CC3)CC2)ccc1Oc1ccc(F)cc1 [Example 59]
A: 0.49

Q: # query: log10 of Kb of entry Cc1ccc(Oc2ccc(C(=O)N3CCCN(C4CCC4)CC3)cn2)cc1 [Example 104]
A: -0.14

Q: # lookup: log10 of Kb of O=C(c1ccc(Oc2ccc(F)cc2)nc1)N1CCN(C2CCCC2)CC1 [Example 74]
A: 0.95

Q: Given the entry O=C(c1ccc(Oc2ccc(F)cc2F)nc1)N1CCCN(C2CCC2)CC1 [Example 30] , report its measured log10 of Kb.
A: -0.27

Q: Given O=C(c1ccc(Oc2ccc(Cl)c(Cl)c2)cn1)N1CCCN(C2CCC2)CC1 [Example 51, trifluoroacetic acid salt] , state its recorded log10 of Kb.
A: 0.36

Q: Reported log10 of Kb, compound O=C(c1ccc(Oc2ccc(F)cc2)nc1)N1CCCN(C2CCCC2)CC1 [Example 67] : ____
A: 0.13

Q: Endpoint output: log10 of Kb of O=C(c1ccc(Oc2ccc(F)c(F)c2)nc1)N1CCCN(C2CCC2)CC1 [Example 26] . Value?
A: -0.64

---

EXPERIMENTAL SYSTEM: cloned human H3 receptors (Homo sapiens, UniProt Q9Y5N1)
Construct: expressed in transfected cells
TEST PROTOCOL: H3 Receptor Binding (Human)
CONDITION SUMMARY: cloned human H3 receptors stably expressed in SK-N-MC cells; average of the results obtained; read-out: Human H3 Ki
Structures can show the parent of a compound that is named as a salt.
METRIC: pKi
Recall that pKi is obtained by taking minus log10 of the concentration measured in molar.

Q: Requested field: pKi. Item: N#Cc1nc(C(=O)N2CCCN(C3CC3)CC2)ccc1Oc1ccc(F)cc1 [Example 59]
A: 8.52

Q: Please give the measured pKi for this compound: N#Cc1nc(C(=O)N2CCCN(C3CC3)CC2)ccc1Oc1cccnc1 [Example 56, hydrochloride salt]
A: 8.30

Q: Which pKi value belongs to O=C(c1ccc(Oc2ccccc2)nc1)N1CCCN(C2CCCC2)CC1 [Example 65] ?
A: 8.70

---

Please provide measured Ki for the entries that follow.
EXPERIMENTAL SYSTEM: cloned human H3 receptors (Homo sapiens, UniProt Q9Y5N1)
Construct: expressed in transfected cells
TEST PROTOCOL: H3 Receptor Binding (Human)
CONDITION SUMMARY: cloned human H3 receptors stably expressed in SK-N-MC cells; average of the results obtained; read-out: Human H3 Ki
Structures can show the parent of a compound that is named as a salt.
Use nM as the unit, but write only the number.

Q: May I ask what Ki has been recorded for `O=C(c1ccc(Sc2ccc(Cl)cc2)nc1)N1CCCN(C2CCC2)CC1` ?
A: 1

Q: // Ki lookup, key: `O=C(c1ccc(Oc2cc(Cl)cc(Cl)c2)nc1)N1CCCN(C2CCC2)CC1`
A: 1

Q: So what does the record say about Ki for `O=C(c1ccc(Oc2ccccc2F)nc1)N1CCCN(C2CC2)CC1` ?
A: 4

Q: Form field: reported Ki of `NC(=O)c1nc(C(=O)N2CCCN(C3CC3)CC2)ccc1Oc1cccnc1`
A: 32

Q: What does the data say about its Ki? Entry: CC(C)N1CCN(C(=O)c2ccc(Oc3ccc(Cl)c(Cl)c3)c(C#N)n2)CC1 [Example 53, trifluoroacetic acid salt]
A: 49

Q: May I ask what Ki has been recorded for O=C(c1ccc(Oc2ccc(Cl)c(Cl)c2)cn1)N1CCCN(C2CCC2)CC1 [Example 51, trifluoroacetic acid salt] ?
A: 2

Q: Look at this compound and give its reported Ki. `O=C(c1ccc(Oc2ccccc2F)cn1)N1CCCN(C2CCC2)CC1`
A: 2

Q: What Ki value was documented for this compound, `CC(C)N1CCN(C(=O)c2ccc(Oc3ccccc3Cl)nc2)CC1` ?
A: 9

Q: Could you tell me which Ki is on file for CC(C)N1CCCN(C(=O)c2ccc(Oc3ccc(Cl)c(Cl)c3)cn2)CC1 [Example 50, trifluoroacetic acid salt] ?
A: 18

Q: Quick check: Ki of `N#Cc1nc(C(=O)N2CCCN(C3CC3)CC2)ccc1Oc1ccccc1` ?
A: 3

Q: Returns the measured Ki for the input compound. Input: `N#Cc1cccc(Oc2ccc(C(=O)N3CCCN(C4CCC4)CC3)cn2)c1`
A: 1

Q: Param item = O=C(c1ccc(Oc2ccc(Cl)cc2)cn1)N1CCCN(C2CCC2)CC1 [Example 68, trifluoroacetic acid salt] ; retrieve measured Ki.
A: 2

Q: Reported Ki, compound `N#Cc1nc(C(=O)N2CCCN(C3CCC3)CC2)ccc1Oc1ccc(F)cc1` : ____
A: 1

---

Please respond with reported log10 Ki for every item in the list.
EXPERIMENTAL SYSTEM: cloned human H3 receptors (Homo sapiens, UniProt Q9Y5N1)
Construct: expressed in transfected cells
TEST PROTOCOL: H3 Receptor Binding (Human)
CONDITION SUMMARY: cloned human H3 receptors stably expressed in SK-N-MC cells; average of the results obtained; read-out: Human H3 Ki
In our notation, the value equals log10 of Ki in nM.

Q: Name the recorded log10 Ki for `CSc1ccc(Oc2ccc(C(=O)N3CCCN(C4CCC4)CC3)cn2)cc1C` .
A: 0.00

Q: // log10 Ki lookup, key: `O=C(c1ccc(Oc2ccccc2Cl)nc1)N1CCCN(C2CCC2)CC1`
A: 0.60

Q: Give the measured log10 Ki of `O=C(c1ccc(Oc2ccc(F)cc2)nc1)N1CCN(C2CC2)CC1` .
A: 2.26

Q: Bench note: what log10 Ki did `O=C(c1ccc(Oc2ccc(F)cc2)nc1)N1CCN(C2CCCC2)CC1` show?
A: 0.85

Q: I am curious: what log10 Ki value has been reported for `N#Cc1nc(C(=O)N2CCCN(C3CC3)CC2)ccc1Oc1ccccc1F` ?
A: 0.78

Q: Which log10 Ki value is on record for `Cc1ccc(Oc2ccc(C(=O)N3CCCN(C4CCC4)CC3)cn2)cc1` ?
A: 0.30

Q: What does the record list as log10 Ki for `N#Cc1cccc(Oc2ccc(C(=O)N3CCCN(C4CC4)CC3)cn2)c1` ?
A: 0.85

Q: What does the record list as log10 Ki for `Cc1cc(Oc2ccc(C(=O)N3CCCN(C4CCC4)CC3)cn2)ccc1Cl` ?
A: 0.30

Q: Quick one: log10 Ki of `CC(C)N1CCN(C(=O)c2ccc(Oc3cccc(C#N)c3)nc2)CC1` ?
A: 1.76

Q: Return reported log10 Ki; argument: `O=C(c1ccc(Oc2cccc(F)c2)nc1)N1CCCN(C2CC2)CC1`
A: 0.70

Q: Quick one: log10 Ki of `CC(C)N1CCN(C(=O)c2ccc(Oc3cccnc3)nc2)CC1` ?
A: 1.75

Q: What value of log10 Ki has been reported for the following molecule? CN1CCCN(C(=O)c2ccc(Oc3ccc(F)cc3)nc2)CC1 [Example 92]
A: 2.40

Q: Would you kindly share the measured log10 Ki for `O=C(c1cccc(Oc2ccc(Cl)c(Cl)c2)n1)N1CCCN(C2CC2)CC1` ?
A: 2.51

Q: Can you look up the measured log10 Ki of `O=C(c1ccc(Oc2ccc(F)cc2)nc1)N1CCN(C2CCC2)CC1` for me?
A: 1.00

Q: Item under review: `N#Cc1nc(C(=O)N2CCCN(C3CC3)CC2)ccc1Oc1cccc(F)c1` . Reported log10 Ki?
A: 1.46

Q: Can you share its log10 Ki? I mean this molecule: `O=C(c1ccc(Sc2ccc(F)cc2)nc1)N1CCCN(C2CCC2)CC1`
A: 0.00

Q: Please report the recorded log10 Ki for `N#Cc1nc(C(=O)N2CCCN(C3CC3)CC2)ccc1Oc1ccc(Cl)c(Cl)c1` .
A: 1.00

Q: Which log10 Ki reading was recorded for the molecule `O=C(c1ccc(Oc2ccccc2Cl)nc1)N1CCN(C2CCCC2)CC1` ?
A: 1.28

Q: Report log10 Ki for `CSc1ccc(Oc2ccc(C(=O)N3CCN(C(C)C)CC3)cn2)cc1` please.
A: 1.82

Q: Look at this molecule and give its reported log10 Ki. `O=C(c1ccc(Oc2cc(F)ccc2F)nc1)N1CCCN(C2CC2)CC1`
A: 0.70

Q: Endpoint output: log10 Ki of `CSc1ccc(Oc2ccc(C(=O)N3CCN(C(C)C)CC3)cn2)cc1C` . Value?
A: 1.77

Q: What measured log10 Ki goes with `CC(C)N1CCN(C(=O)c2ccc(Oc3cccc(Cl)c3)nc2)CC1` ?
A: 1.75

Q: Give its log10 Ki value. Item: `Cc1cc(Oc2ccc(C(=O)N3CCCN(C(C)C)CC3)cn2)ccc1Cl`
A: 0.70

Q: I have this molecule here, CN1CCCN(C(=O)c2ccc(Oc3ccc(F)cc3)nc2)CC1 [Example 80] , and I need its recorded log10 Ki.
A: 2.40

Q: // log10 Ki lookup, key: `O=C(c1ccc(Oc2cc(F)cc(F)c2)nc1)N1CCCN(C2CCC2)CC1`
A: 0.00

Q: Can you share its log10 Ki? I mean this molecule: `O=C(c1ccc(Oc2ccc(Cl)cc2)nc1)N1CCCN(C2CCC2)CC1`
A: 0.00
